Tested on: Oryza sativum (ORYSA)
experiment_notes: Pre-emergence herbicidal evaluation, rice
Type: in vivo
experimental_parameters: dose 0.1 kg/ha
experimental_endpoint: ORYSA rating

• Cc1cc(OCC=C(Cl)Cl)nc(Oc2cc(C(F)(F)F)nn2C)c1 [Example 12] = 1 (1 - Trace effect)
• Cc1cc(OC=CCC(F)(F)F)nc(Oc2cc(C(F)(F)F)nn2C)c1 [Example 2] = 2 (2 - Slight effect)
• Cc1cc(OCC(F)(F)C(F)(F)C(F)(F)C(F)F)nc(Oc2cc(C(F)(F)F)nn2C)c1 [Example 8] = 1 (1 - Trace effect)
• Cc1cc(OCC(F)(F)C(F)(F)F)nc(Oc2cc(C(F)(F)F)nn2C)c1 [Example 7] = 1 (1 - Trace effect)
• Cc1cc(OC/C=C/C(F)(F)F)nc(Oc2cc(C(F)(F)F)nn2C)c1 [Example 1] = 4 (4 - Injury)
• CC(Cl)=CCOc1cc(C)cc(Oc2cc(C(F)(F)F)nn2C)n1 [Example 11] = 2 (2 - Slight effect)
• COc1cc(OCC(F)(F)C(F)F)nc(Oc2cc(C(F)(F)F)nn2C)c1 [Example 4] = 2 (2 - Slight effect)
• Cc1cc(OCC(F)(F)C(F)F)nc(Oc2cc(C(F)(F)F)nn2C)c1 [Example 6] = 1 (1 - Trace effect)

----------
Test system: Hordeum vulgare (HORVW)
experiment_notes: Post-emergence herbicidal evaluation, winter barley
Assay type: in vivo
experimental_parameters: dose 0.1 kg/ha, rated 2 to 4 weeks after treatment
Protocol: [table] […] These acetone solutions are diluted with water and the resulting formulations applied at dosage levels equivalent of about 0.03 to 0.4 kg per hectare of test compound per pot. After spraying the plants are placed on greenhouse benches and are cared for in the usual manner, commensurate with conventional greenhouse practices. From 2 to 4 weeks after treatment, the seedling plants are examined and rated according to the rating system provided above. […]
In this section, each of the compounds is paired with its reported HORVW rating.
experimental_endpoint: HORVW rating

- Cc1cc(OC/C=C/C(F)(F)F)nc(Oc2cc(C(F)(F)F)nn2C)c1: 5 (5 - Definite injury)
- Cc1cc(OCC(F)(F)C(F)F)nc(Oc2cc(C(F)(F)F)nn2C)c1: 2 (2 - Slight effect)
- Cc1cc(OCC=C(Cl)Cl)nc(Oc2cc(C(F)(F)F)nn2C)c1: 5 (5 - Definite injury)
- Cc1cc(OCC(F)(F)C(F)(F)F)nc(Oc2cc(C(F)(F)F)nn2C)c1: 3 (3 - Moderate effect)
- CC(Cl)=CCOc1cc(C)cc(Oc2cc(C(F)(F)F)nn2C)n1: 4 (4 - Injury)
- COc1cc(OCC(F)(F)C(F)F)nc(Oc2cc(C(F)(F)F)nn2C)c1: 3 (3 - Moderate effect)
- Cc1cc(OCC(F)(F)C(F)(F)C(F)(F)C(F)F)nc(Oc2cc(C(F)(F)F)nn2C)c1: 3 (3 - Moderate effect)
- Cc1cc(OC=CCC(F)(F)F)nc(Oc2cc(C(F)(F)F)nn2C)c1: 3 (3 - Moderate effect)

----------
Test system: Matricaria inodora (MATIN)
experiment_notes: Pre-emergence herbicidal evaluation, mayweed
Type: in vivo
experimental_parameters: dose 0.025 kg/ha
From the text: The pre-emergence herbicidal activity of the compounds of the present invention is exemplified by the following test in which the seeds of a variety of monocotyledonous and dicotyledonous plants are seperately mixed with potting soil and planted on top of approximately one inch of soil in separate pots. […]
experimental_endpoint: MATIN rating

• CC(Cl)=CCOc1cc(C#N)cc(Oc2csc(C(F)(F)F)c2)n1 [Example 28] = 9 (9 - Complete kill)
• C=C(Cl)COc1cc(C)cc(Oc2cc(C(F)(F)F)nn2C)n1 [Example 36] = 7 (7 - Good herbicidal effect)
• COc1cc(OCC(F)(F)C(F)F)nc(Oc2cc(C(F)(F)F)nn2C)c1 [Example 4] = 8 (8 - Approaching complete kill)
• Cc1cc(OCC=C(Cl)Cl)nc(Oc2cc(C(F)(F)F)nn2C)c1 [Example 12] = 9 (9 - Complete kill)
• CC(Cl)=CCOc1cc(C)cc(Oc2cc(C(F)(F)F)nn2C)n1 [Example 11] = 9 (9 - Complete kill)
• Cc1cc(OC/C=C/C(F)(F)F)nc(Oc2cc(C(F)(F)F)nn2C)c1 [Example 1] = 9 (9 - Complete kill)
• Cc1cc(OCC(F)(F)C(F)(F)C(F)(F)C(F)F)nc(Oc2cc(C(F)(F)F)nn2C)c1 [Example 8] = 8 (8 - Approaching complete kill)
• Cc1cc(OCC(F)(F)C(F)(F)F)nc(Oc2cc(C(F)(F)F)nn2C)c1 [Example 7] = 3 (3 - Moderate effect)
• Cc1cc(OC=CCC(F)(F)F)nc(Oc2cc(C(F)(F)F)nn2C)c1 [Example 2] = 6 (6 - Herbicidal effect)

----------
System: Setaria viridis (SETVI)
experiment_notes: Post-emergence herbicidal evaluation, green foxtail
Type: in vivo
experimental_parameters: dose 0.1 kg/ha, rated 2 to 4 weeks after treatment
// reported SETVI rating for each item listed
experimental_endpoint: SETVI rating

- Cc1cc(OC/C=C/C(F)(F)F)nc(Oc2cc(C(F)(F)F)nn2C)c1 [Example 1]: 8 (8 - Approaching complete kill)
- Cc1cc(OCC(F)(F)C(F)(F)F)nc(Oc2cc(C(F)(F)F)nn2C)c1 [Example 7]: 4 (4 - Injury)
- COc1cc(OCC(F)(F)C(F)F)nc(Oc2cc(C(F)(F)F)nn2C)c1 [Example 4]: 8 (8 - Approaching complete kill)
- Cc1cc(OCC(F)(F)C(F)F)nc(Oc2cc(C(F)(F)F)nn2C)c1 [Example 6]: 3 (3 - Moderate effect)
- Cc1cc(OC=CCC(F)(F)F)nc(Oc2cc(C(F)(F)F)nn2C)c1 [Example 2]: 8 (8 - Approaching complete kill)
- Cc1cc(OCC=C(Cl)Cl)nc(Oc2cc(C(F)(F)F)nn2C)c1 [Example 12]: 9 (9 - Complete kill)
- CC(Cl)=CCOc1cc(C)cc(Oc2cc(C(F)(F)F)nn2C)n1 [Example 11]: 6 (6 - Herbicidal effect)
- Cc1cc(OCC(F)(F)C(F)(F)C(F)(F)C(F)F)nc(Oc2cc(C(F)(F)F)nn2C)c1 [Example 8]: 6 (6 - Herbicidal effect)

----------
Test system: Stellaria media (STEME)
experiment_notes: Pre-emergence herbicidal evaluation, chickweed
Assay type: in vivo
experimental_parameters: dose 0.013 kg/ha
experimental_endpoint: STEME rating

* CC(Cl)=CCOc1cc(C)cc(Oc2cc(C(F)(F)F)nn2C)n1 | 8 (8 - Approaching complete kill)
* Cc1cc(OCC(F)(F)C(F)(F)C(F)(F)C(F)F)nc(Oc2cc(C(F)(F)F)nn2C)c1 | 1 (1 - Trace effect)
* Cc1cc(OC/C=C/C(F)(F)F)nc(Oc2cc(C(F)(F)F)nn2C)c1 | 5 (5 - Definite injury)
* COc1cc(OCC(F)(F)C(F)F)nc(Oc2cc(C(F)(F)F)nn2C)c1 | 4 (4 - Injury)
* Cc1cc(OCC=C(Cl)Cl)nc(Oc2cc(C(F)(F)F)nn2C)c1 | 6 (6 - Herbicidal effect)
* Cc1cc(OC=CCC(F)(F)F)nc(Oc2cc(C(F)(F)F)nn2C)c1 | 0 (0 - No effect)

----------
Tested on: Ambrosia artemiisifolia (AMBEL)
experiment_notes: Pre-emergence herbicidal evaluation, ragweed
Assay type: in vivo
experimental_parameters: dose 0.025 kg/ha
experimental_endpoint: AMBEL rating

• Cc1cc(OC=CCC(F)(F)F)nc(Oc2cc(C(F)(F)F)nn2C)c1 = 3 (3 - Moderate effect)
• Cc1cc(OCC(F)(F)C(F)(F)F)nc(Oc2cc(C(F)(F)F)nn2C)c1 = 1 (1 - Trace effect)
• Cc1cc(OCC(F)(F)C(F)F)nc(Oc2cc(C(F)(F)F)nn2C)c1 = 1 (1 - Trace effect)
• CC(Cl)=CCOc1cc(C)cc(Oc2cc(C(F)(F)F)nn2C)n1 = 9 (9 - Complete kill)
• Cc1cc(OCC(F)(F)C(F)(F)C(F)(F)C(F)F)nc(Oc2cc(C(F)(F)F)nn2C)c1 = 7 (7 - Good herbicidal effect)
• COc1cc(OCC(F)(F)C(F)F)nc(Oc2cc(C(F)(F)F)nn2C)c1 = 9 (9 - Complete kill)
• Cc1cc(OCC=C(Cl)Cl)nc(Oc2cc(C(F)(F)F)nn2C)c1 = 8 (8 - Approaching complete kill)
• Cc1cc(OC/C=C/C(F)(F)F)nc(Oc2cc(C(F)(F)F)nn2C)c1 = 9 (9 - Complete kill)

----------
Measured DIGSA rating of individual entries
Tested on: Digitaria sanguinalis (DIGSA)
experiment_notes: Post-emergence herbicidal evaluation, large crabgrass
Assay type: in vivo
experimental_parameters: dose 0.4 kg/ha, rated 2 to 4 weeks after treatment
Description: [table] […] These acetone solutions are diluted with water and the resulting formulations applied at dosage levels equivalent of about 0.03 to 0.4 kg per hectare of test compound per pot. After spraying the plants are placed on greenhouse benches and are cared for in the usual manner, commensurate with conventional greenhouse practices. From 2 to 4 weeks after treatment, the seedling plants are examined and rated according to the rating system provided above. […]
experimental_endpoint: DIGSA rating

* Cc1cc(OCC(F)(F)C(F)(F)C(F)(F)C(F)F)nc(Oc2cc(C(F)(F)F)nn2C)c1 | 9 (9 - Complete kill)
* Cc1cc(OC/C=C/C(F)(F)F)nc(Oc2cc(C(F)(F)F)nn2C)c1 | 8 (8 - Approaching complete kill)
* CC(Cl)=CCOc1cc(C)cc(Oc2cc(C(F)(F)F)nn2C)n1 | 9 (9 - Complete kill)
* Cc1cc(OCC=C(Cl)Cl)nc(Oc2cc(C(F)(F)F)nn2C)c1 | 9 (9 - Complete kill)
* Cc1cc(OC=CCC(F)(F)F)nc(Oc2cc(C(F)(F)F)nn2C)c1 | 9 (9 - Complete kill)
* Cc1cc(OCC(F)(F)C(F)F)nc(Oc2cc(C(F)(F)F)nn2C)c1 | 7 (7 - Good herbicidal effect)
* COc1cc(OCC(F)(F)C(F)F)nc(Oc2cc(C(F)(F)F)nn2C)c1 | 8 (8 - Approaching complete kill)
* Cc1cc(OCC(F)(F)C(F)(F)F)nc(Oc2cc(C(F)(F)F)nn2C)c1 | 9 (9 - Complete kill)
